# TARGET_OR_SYSTEM: hNav1.5 (Homo sapiens, UniProt Q14524)
# Construct: host or cells: HEK293T
# TEST_DESCRIPTION: Whole-cell patch-clamp on HEK293T cells, late INa (CiPA-like protocol with ATX-II)
# Type: cell-based
# PARTICULARS: apparent IC50 for late INa inhibition, ATX-II 20 nM or 100 nM; nH = 1
READOUT_LABEL: pIC50
Lab note: report pIC50 as minus log10 of the concentration in molar units, number only.

Request: Find the measured pIC50 of NC(=O)O[C@@H](Cn1ncnn1)c1ccccc1Cl [cenobamate] with hNav1.5 (Homo sapiens, UniProt Q14524) as test system.
Response: 4.33

====

# TARGET_OR_SYSTEM: hNav1.5 (Homo sapiens, UniProt Q14524)
# Construct: host or cells: HEK293T
# TEST_DESCRIPTION: State-dependent blocking/unblocking kinetics of Nav1.5 (use-dependent block protocol, inactivation time constants)
# Format: cell-based
# PARTICULARS: Kd (I)
READOUT_LABEL: pKd
Lab note: report pKd as minus log10 of the concentration in molar units, number only.

Request: Supply pKd value. Item: NC(=O)O[C@@H](Cn1ncnn1)c1ccccc1Cl [cenobamate]
Response: 3.56

====

# TARGET_OR_SYSTEM: hCav1.2 (α1c + β2 + α2δ1) (Homo sapiens, UniProt Q13936)
# Construct: host or cells: HEK293T
# Sequence (Q13936 whole entry): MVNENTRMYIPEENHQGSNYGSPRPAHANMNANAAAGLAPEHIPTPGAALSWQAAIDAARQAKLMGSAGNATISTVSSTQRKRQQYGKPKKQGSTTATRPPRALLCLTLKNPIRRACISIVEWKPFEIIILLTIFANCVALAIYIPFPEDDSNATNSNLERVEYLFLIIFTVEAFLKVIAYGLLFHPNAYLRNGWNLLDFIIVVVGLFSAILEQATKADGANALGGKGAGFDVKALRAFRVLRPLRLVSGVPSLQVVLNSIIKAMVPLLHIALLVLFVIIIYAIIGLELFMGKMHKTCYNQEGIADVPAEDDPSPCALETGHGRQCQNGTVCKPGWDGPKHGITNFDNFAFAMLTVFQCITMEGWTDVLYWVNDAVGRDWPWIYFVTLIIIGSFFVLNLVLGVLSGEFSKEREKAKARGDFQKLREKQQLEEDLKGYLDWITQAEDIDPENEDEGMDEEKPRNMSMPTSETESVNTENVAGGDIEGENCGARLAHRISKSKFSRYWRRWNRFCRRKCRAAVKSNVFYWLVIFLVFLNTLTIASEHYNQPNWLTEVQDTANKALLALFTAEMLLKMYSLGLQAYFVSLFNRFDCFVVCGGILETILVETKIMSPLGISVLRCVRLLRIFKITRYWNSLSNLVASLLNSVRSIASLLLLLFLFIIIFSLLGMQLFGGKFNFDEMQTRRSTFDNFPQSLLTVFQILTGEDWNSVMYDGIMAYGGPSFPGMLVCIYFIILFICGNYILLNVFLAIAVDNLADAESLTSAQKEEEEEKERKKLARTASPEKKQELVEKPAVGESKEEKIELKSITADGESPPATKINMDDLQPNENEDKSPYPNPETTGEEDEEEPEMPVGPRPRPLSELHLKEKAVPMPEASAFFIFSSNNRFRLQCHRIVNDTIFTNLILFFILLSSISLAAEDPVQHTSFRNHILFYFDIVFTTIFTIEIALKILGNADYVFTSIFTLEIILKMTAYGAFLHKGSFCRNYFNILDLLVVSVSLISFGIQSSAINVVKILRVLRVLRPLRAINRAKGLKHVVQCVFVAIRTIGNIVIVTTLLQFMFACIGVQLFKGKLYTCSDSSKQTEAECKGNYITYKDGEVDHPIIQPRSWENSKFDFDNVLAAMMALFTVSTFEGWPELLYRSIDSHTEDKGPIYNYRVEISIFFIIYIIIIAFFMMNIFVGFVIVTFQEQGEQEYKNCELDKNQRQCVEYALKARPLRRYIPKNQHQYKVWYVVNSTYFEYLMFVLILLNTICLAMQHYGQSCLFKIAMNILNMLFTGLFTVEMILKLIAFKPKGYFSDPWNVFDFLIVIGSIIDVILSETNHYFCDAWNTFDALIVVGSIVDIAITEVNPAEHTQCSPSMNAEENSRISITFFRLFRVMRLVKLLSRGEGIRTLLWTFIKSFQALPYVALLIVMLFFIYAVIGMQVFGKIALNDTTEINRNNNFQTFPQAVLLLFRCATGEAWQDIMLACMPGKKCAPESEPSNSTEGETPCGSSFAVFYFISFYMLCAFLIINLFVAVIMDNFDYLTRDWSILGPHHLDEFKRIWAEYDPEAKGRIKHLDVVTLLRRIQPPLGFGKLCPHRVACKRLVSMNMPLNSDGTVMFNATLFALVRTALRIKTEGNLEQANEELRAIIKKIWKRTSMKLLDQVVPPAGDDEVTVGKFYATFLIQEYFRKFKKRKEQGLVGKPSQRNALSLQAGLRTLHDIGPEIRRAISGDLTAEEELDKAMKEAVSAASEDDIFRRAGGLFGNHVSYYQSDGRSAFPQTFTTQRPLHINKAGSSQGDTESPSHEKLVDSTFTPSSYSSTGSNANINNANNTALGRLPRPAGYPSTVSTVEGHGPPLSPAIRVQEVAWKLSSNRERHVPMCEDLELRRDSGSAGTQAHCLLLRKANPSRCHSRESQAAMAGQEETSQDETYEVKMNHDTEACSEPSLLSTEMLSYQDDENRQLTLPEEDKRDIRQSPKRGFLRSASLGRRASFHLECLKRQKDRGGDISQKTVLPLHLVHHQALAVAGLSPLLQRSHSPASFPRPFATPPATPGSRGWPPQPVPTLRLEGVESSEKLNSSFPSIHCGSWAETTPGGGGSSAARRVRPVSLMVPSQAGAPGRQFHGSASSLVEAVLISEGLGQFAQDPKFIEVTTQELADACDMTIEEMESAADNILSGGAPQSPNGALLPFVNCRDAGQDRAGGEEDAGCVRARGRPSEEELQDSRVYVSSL
# Sequence (Q08289 whole entry partner): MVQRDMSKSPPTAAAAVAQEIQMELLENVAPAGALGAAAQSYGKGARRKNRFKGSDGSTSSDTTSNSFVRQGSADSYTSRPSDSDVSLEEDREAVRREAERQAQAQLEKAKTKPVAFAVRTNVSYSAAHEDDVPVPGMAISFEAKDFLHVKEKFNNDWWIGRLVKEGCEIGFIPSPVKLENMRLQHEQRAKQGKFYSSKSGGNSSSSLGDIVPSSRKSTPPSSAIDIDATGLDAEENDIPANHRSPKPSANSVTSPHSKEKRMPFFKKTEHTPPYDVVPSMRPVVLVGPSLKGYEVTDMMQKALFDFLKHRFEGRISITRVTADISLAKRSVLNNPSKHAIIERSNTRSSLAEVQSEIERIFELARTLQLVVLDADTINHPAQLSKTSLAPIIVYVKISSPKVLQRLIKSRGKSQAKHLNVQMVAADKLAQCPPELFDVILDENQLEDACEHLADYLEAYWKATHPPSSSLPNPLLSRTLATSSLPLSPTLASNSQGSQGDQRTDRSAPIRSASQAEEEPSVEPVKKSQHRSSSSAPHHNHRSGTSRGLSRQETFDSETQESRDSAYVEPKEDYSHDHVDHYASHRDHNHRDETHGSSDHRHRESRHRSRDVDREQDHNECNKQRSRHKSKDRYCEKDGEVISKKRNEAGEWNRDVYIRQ
# Sequence (P54289 25-946 partner limits assumed): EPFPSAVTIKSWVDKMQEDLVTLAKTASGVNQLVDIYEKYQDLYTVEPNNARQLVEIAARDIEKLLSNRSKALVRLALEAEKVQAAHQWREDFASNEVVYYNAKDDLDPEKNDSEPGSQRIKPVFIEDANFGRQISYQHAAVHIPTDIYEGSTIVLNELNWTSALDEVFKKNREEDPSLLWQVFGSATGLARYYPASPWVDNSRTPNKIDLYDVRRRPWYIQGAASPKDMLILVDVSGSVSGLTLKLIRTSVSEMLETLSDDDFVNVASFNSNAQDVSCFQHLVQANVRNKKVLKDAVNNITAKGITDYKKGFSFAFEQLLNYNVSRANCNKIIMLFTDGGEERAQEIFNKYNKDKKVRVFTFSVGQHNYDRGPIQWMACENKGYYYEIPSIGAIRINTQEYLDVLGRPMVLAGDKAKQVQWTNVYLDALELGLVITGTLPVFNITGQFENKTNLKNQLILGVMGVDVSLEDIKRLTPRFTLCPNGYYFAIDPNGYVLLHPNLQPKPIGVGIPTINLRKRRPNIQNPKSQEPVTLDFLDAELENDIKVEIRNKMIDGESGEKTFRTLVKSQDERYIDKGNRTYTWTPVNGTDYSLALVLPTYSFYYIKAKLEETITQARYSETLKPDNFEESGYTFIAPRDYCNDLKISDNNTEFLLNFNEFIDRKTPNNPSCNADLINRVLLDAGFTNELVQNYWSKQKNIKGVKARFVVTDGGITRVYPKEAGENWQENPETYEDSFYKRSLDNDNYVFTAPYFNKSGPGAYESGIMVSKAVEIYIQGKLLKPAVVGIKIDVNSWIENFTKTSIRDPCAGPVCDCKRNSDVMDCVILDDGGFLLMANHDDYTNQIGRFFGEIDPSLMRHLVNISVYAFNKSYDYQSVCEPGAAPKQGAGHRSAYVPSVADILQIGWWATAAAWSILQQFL
# Sequence (P54289 947-1103 partner limits assumed): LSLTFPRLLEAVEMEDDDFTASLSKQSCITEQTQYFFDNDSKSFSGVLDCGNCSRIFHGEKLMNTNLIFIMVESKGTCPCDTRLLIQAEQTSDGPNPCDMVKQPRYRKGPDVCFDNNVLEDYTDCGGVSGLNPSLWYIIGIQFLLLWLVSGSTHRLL
# TEST_DESCRIPTION: Whole-cell patch-clamp on HEK293T cells, ICaL
# Format: cell-based
# PARTICULARS: apparent IC50 for hCav1.2 (ICaL) inhibition, unitary Hill coefficient
# Experimental: Experiments were performed on HEK293T cell lines with persistent/inducible expression of different human cardiac ion channel isoforms: hNav1.5 and hKv7.1 + minK (Anaxon AG, Bern, Switzerland), hCav1.2 (α1c + β2 + α2δ1) (B’SYS GmbH, Witterswil, Switzerland), and hKv11.1 (hERG) (Cytocentrics Bioscience GmbH, Rostock, Germany). […]
READOUT_LABEL: pIC50
Lab note: report pIC50 as minus log10 of the concentration in molar units, number only.

Request: Supply pIC50 value. Item: NC(=O)O[C@@H](Cn1ncnn1)c1ccccc1Cl [cenobamate]
Response: 3.29

====

# TARGET_OR_SYSTEM: hKv11.1 (hERG), IKr (Homo sapiens)
# Construct: host or cells: HEK293T
# Sequence (Q12809 whole entry): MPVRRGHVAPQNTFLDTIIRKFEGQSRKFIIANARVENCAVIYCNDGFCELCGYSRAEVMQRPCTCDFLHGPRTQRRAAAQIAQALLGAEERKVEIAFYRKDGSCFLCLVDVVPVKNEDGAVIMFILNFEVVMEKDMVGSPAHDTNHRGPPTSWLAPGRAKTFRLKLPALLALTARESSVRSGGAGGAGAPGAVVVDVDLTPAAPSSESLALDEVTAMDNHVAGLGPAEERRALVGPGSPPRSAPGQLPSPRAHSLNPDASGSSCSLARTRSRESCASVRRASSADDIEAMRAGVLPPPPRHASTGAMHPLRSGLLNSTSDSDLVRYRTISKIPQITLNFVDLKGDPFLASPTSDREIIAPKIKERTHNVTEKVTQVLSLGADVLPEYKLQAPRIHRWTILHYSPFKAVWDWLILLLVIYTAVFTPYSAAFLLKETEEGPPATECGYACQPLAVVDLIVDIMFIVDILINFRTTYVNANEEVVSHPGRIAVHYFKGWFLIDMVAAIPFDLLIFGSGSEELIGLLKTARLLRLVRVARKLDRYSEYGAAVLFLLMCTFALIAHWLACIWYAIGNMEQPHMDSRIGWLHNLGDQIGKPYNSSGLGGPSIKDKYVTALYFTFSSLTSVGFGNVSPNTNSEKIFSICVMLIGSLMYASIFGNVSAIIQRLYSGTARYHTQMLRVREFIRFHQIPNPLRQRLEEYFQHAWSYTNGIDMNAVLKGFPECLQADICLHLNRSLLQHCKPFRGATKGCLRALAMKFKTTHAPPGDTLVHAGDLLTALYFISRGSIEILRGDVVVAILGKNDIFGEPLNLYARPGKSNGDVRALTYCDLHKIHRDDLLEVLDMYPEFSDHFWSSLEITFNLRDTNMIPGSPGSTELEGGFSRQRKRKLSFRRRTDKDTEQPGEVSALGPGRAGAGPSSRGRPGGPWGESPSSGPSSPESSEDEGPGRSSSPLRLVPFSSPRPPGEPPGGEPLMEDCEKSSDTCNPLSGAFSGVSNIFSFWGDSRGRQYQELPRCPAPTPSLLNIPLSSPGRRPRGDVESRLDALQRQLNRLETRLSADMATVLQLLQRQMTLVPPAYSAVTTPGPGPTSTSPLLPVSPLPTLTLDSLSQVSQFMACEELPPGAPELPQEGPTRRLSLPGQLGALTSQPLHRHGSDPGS
# TEST_DESCRIPTION: Whole-cell patch-clamp on HEK293T cells, IKr
# Type: cell-based
# PARTICULARS: human, HEK293T cells expressing hKv11.1 (hERG), pH 7.4, cenobamate 200 µM; read-out: % IKr inhibition, single experiments (Table S7)
READOUT_LABEL: inhibition at 200 µM (%)
# unit: % | format: bare number

Request: Find the measured inhibition at 200 µM of NC(=O)O[C@@H](Cn1ncnn1)c1ccccc1Cl [cenobamate] with hKv11.1 (hERG), IKr (Homo sapiens) as test system.
Response: 8.01

====

# TARGET_OR_SYSTEM: hNav1.5 (Homo sapiens)
# Construct: host or cells: HEK293T
# TEST_DESCRIPTION: State-dependent blocking/unblocking kinetics of Nav1.5 (use-dependent block protocol, inactivation time constants)
# Assay type: cell-based
# PARTICULARS: Kd (O), open conformation; assumed equivalent to IC50 on peak INa
READOUT_LABEL: Kd (µM)
# unit: µM | format: bare number

Request: Supply Kd value. Item: NC(=O)O[C@@H](Cn1ncnn1)c1ccccc1Cl [cenobamate]
Response: 87.8
